Molecular target: UniProtKB Q8CA95
Experiment: PDE10 enzyme inhibition, IMAP TR-FRET assay (Example A: MPDE10A7 Enzyme Activity and Inhibition)
Type: biochemical
Conditions: Table 1A, Examples 11-56; read-out: PDE10 IC50
pIC50: −log10 of the molar value.
quantity.kind: pIC50

molecule	tested.on	value.reported
Clc1ccc2[nH]c(C3CN(c4nc(Cl)ncc4Cl)C3)nc2c1 [Example 55]	UniProtKB Q8CA95	6.28

P = Clc1ccc2[nH]c(C3CN(c4nccnc4-c4ccncc4)C3)nc2c1 [Example 34]
Q = O=C(NCc1ccccc1)c1cccnc1N1CC(c2nc3cc(Cl)ccc3[nH]2)C1 [Example 19]
R = Cc1ccc2[nH]c(C3CN(c4nccnc4N4CCOCC4)C3)nc2c1 [Example 46]
Arrange the 3 molecules by rising pIC50, starting with the smallest. Reply with the labels, ordered as the question asks. Q, R, P
(Q: 5.33, R: 6.22, P: 6.87)

====

Target: UniProtKB Q8CA95
Assay: PDE10 enzyme inhibition, IMAP TR-FRET assay (Example A: MPDE10A7 Enzyme Activity and Inhibition)
Format: biochemical
Conditions: read-out: IC50
quantity.kind: IC50 (nM)

compound.smiles	unit.spec	value.reported
Clc1ccc2[nH]c(C3CN(c4ccnc(N5CCOCC5)n4)C3)nc2c1	nM	645

I = c1ccc2nc(C3CN(c4nccnc4N4CCCCC4)C3)ccc2c1
II = Clc1ccc2[nH]c(C3CN(c4nc(N5CCOCC5)ncc4Cl)C3)nc2c1
Of I and II , which carries the smaller reported IC50 figure? I would appreciate it if you answered with the label of your choice. II
(II: 155 nM, I: 689 nM)

====

Biological target: PDE10 (UniProt Q8CA95)
Experiment: PDE10 enzyme inhibition, IMAP TR-FRET assay (Example A: MPDE10A7 Enzyme Activity and Inhibition)
Format: biochemical
Details: Table 1A, Examples 11-56; read-out: PDE10 IC50
quantity.kind: IC50 (nM)

Guide cases for IC50, answers given:
compound	IC50 (nM)
COc1nccnc1N1CC(c2nc3cc(Cl)ccc3[nH]2)C1 [Example 45]	499
O=C(NC[C@@H]1CCCO1)c1nccnc1N1CC(c2nc3cc(Cl)ccc3[nH]2)C1 [Example 38]	2150
Clc1ccc2[nH]c(C3CN(c4nccnc4Cl)C3)nc2c1 [Example 53]	1160

1 = Clc1ccc(-c2nccnc2N2CC(c3nc4cc(Cl)ccc4[nH]3)C2)cc1 [Example 32]
2 = COc1cccc(-c2nccnc2N2CC(c3nc4cc(Cl)ccc4[nH]3)C2)c1 [Example 28]
Hi there! Just curious which has the higher IC50 between 1 and 2 . Kindly give the label for the entry you pick. 1

====

Target: PDE10 (UniProt Q8CA95)
Assay: PDE10 enzyme inhibition, IMAP TR-FRET assay (Example A: MPDE10A7 Enzyme Activity and Inhibition)
Type: biochemical
Conditions: Table 1A, Examples 11-56; read-out: PDE10 IC50
quantity.kind: IC50 (nM)

Please review the entries below; each comes with its answer.
compound	tested.on	IC50 / nM
N#Cc1ccc2[nH]c(C3CCN(c4ncccc4Cl)C3)nc2c1 (centres unmarked)	PDE10 (UniProt Q8CA95)	310
Cc1ccc2[nH]c(C3CN(c4ncccc4Cl)C3)nc2c1	PDE10 (UniProt Q8CA95)	3840
N#Cc1ccc2[nH]c(C3CN(c4nccnc4-c4ccccc4)C3)nc2c1	PDE10 (UniProt Q8CA95)	161
O=C(c1cccnc1N1CC(c2nc3cc(Cl)ccc3[nH]2)C1)N1CCC1	PDE10 (UniProt Q8CA95)	1180
Clc1ccc2[nH]c(C3CN(c4ncccc4C4CCOCC4)C3)nc2c1	PDE10 (UniProt Q8CA95)	987

P = Clc1ccc2[nH]c(C3CN(c4ncccc4OC4CCOCC4)C3)nc2c1
Q = O=C(c1cccnc1N1CC(c2nc3cc(Cl)ccc3[nH]2)C1)N1CCOCC1
Which gives the smaller IC50 number: P or Q ? State the label of the item chosen. P
